# experimental.conditions: in methanol, 313.15 K
quantity.name: solubility (mole fraction)

Provide only the value of recorded solubility (mole fraction) for O=P(Oc1ccccc1)(Oc1ccccc1)N1CCN(P(=O)(Oc2ccccc2)Oc2ccccc2)CC1
0.000251

---

# experimental.conditions: in chloroform, 303.15 K
quantity.name: solubility (mole fraction)
Please give only the number in your answer, with no unit.

Provide only the value of recorded solubility (mole fraction) for O=P(Oc1ccccc1)(Oc1ccccc1)N1CCN(P(=O)(Oc2ccccc2)Oc2ccccc2)CC1
0.0162

---

# experimental.conditions: in chloroform, 293.15 K
quantity.name: solubility (mole fraction)

Provide only the value of recorded solubility (mole fraction) for O=P(Oc1ccccc1)(Oc1ccccc1)N1CCN(P(=O)(Oc2ccccc2)Oc2ccccc2)CC1
0.0132
